Recorded self-cleavage, one value per entry.
B1: LINE1-full (parent)
chain: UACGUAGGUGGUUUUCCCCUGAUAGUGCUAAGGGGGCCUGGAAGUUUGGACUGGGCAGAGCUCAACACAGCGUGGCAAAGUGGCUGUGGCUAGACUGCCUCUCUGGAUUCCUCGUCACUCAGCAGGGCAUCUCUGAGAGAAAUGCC

Variants of: B1
Assay: self-cleavage, relative activity (ratio to wild type); higher = more cleavage; in vitro, sequencing; the parent is a self-cleaving ribozyme
Observation type: self-cleavage

INSERT INTO results (alteration, observation_type, obs_value) VALUES
  ('U26C U46A', 'self-cleavage', 0),
  ('A94G U102C', 'self-cleavage', 0.18),
  ('A65G C71G', 'self-cleavage', 0.05),
  ('A57U A92G', 'self-cleavage', 0.07),
  ('C118U A124U', 'self-cleavage', 1.04),
  ('G49U A142G', 'self-cleavage', 0.85),
  ('A42U A138U', 'self-cleavage', 1.34),
  ('A30U U39C', 'self-cleavage', 0.85),
  ('G11U A59U', 'self-cleavage', 1.02),
  ('A67G A121C', 'self-cleavage', 0.62),
  ('C37G U47C', 'self-cleavage', 0.71);

# credit: the RNAGym collection of RNA variant scans (doi:10.7554/elife.90254)
